- Tested on: Vero E6
- Assay: cell viability relative to DMSO; higher = less toxic
- Measurement Context: 72 h; 1 nM
Readout Kind: cell viability (%)
All answers are understood in %, so give the number only.

See these solved cases before continuing.
Cc1cc(O)c(C(C)C)cc1Cl = 96.9
CC(C)N(CCCNC(=O)Nc1ccc(C(C)(C)C)cc1)C[C@H]1O[C@@H](n2ccc3c(N)ncnc32)[C@H](O)[C@@H]1O = 94.3
CN(C)CC[C@@]1(c2ccc(Cl)cc2)Cc2ccccc2C(=O)O1 (racemic) [AC-7954-(+/-)] = 91.4
FC(F)(F)c1cccc(-c2noc(-c3cc(-c4ccccc4)c(C(F)(F)F)s3)n2)c1 = 101

Read the next record carefully.
// CC1=C(C)C(=O)C(C(CCCCCC(=O)O)c2ccccc2)=C(C)C1=O (stereo not given) : cell viability value = 97.7

----------
- Tested on: Caco-2
- Assay: drug sensitivity score (DSS) for viability; higher = more toxic; extreme values may be limits of the assay
- Measurement Context: 72 h
Listing of entries alongside the reported drug sensitivity score.
// no unit, no text: just the number

See these solved cases before continuing.
C[C@@H]1CN(Cc2ccc(F)cc2)[C@@H](C)CN1C(=O)c1cc2c(C(=O)C(=O)N(C)C)cn(C)c2cc1Cl [talmapimod] = 1.5
CO[C@@H](C(=O)N1Cc2[nH]nc(NC(=O)c3ccc(N4CCN(C)CC4)cc3)c2C1)c1ccccc1 [danusertib] = 2.9
CN1c2ccccc2C(=O)N2CCc3c([nH]c4ccccc34)C21 (stereo in doubt) [evodiamine] = 5.2

// CCCCCCCCCCCC(=O)O [lauric-acid] : drug sensitivity score value = 0

// Nc1ccn(C[C@@H](CO)OCP(=O)(O)O)c(=O)n1 [cidofovir] : drug sensitivity score value = 0

// COc1ccc(S(=O)(=O)N2c3ccc(Cl)cc3[C@](O)(c3ccccc3Cl)[C@@H]2C(=O)N2CCC[C@H]2C(N)=O)cc1OC [relcovaptan] : drug sensitivity score value = 0

// CN[C@H](CNC(=O)N1CCC[C@@H]([C@@H](OCCNC(=O)OC)c2cccc(Cl)c2)C1)C[C@H]1CCCOC1 : drug sensitivity score value = 0

// COc1cc2c(NC3CCN(CC4CCCCC4)CC3)nc(N3CCCN(C(C)C)CC3)nc2cc1OCCCN1CCCCC1 [UNC0631] : drug sensitivity score value = 1.6

// CC(C)(Oc1ccc(Cl)cc1)C(=O)N1CSCC1C(=O)O (centres undefined) [timofibrate] : drug sensitivity score value = 0

----------
- Tested on: Calu-3
- Assay: cell viability relative to DMSO; higher = less toxic
- Measurement Context: 72 h; 100 nM
Readout Kind: cell viability (%)
All answers are understood in %, so give the number only.

See these solved cases before continuing.
Nc1nc(N)nc(-c2cc(Cl)ccc2Cl)n1 = 91.5
O=S(=O)(F)Cc1ccccc1 [phenylmethylsulfonyl-fluoride] = 103
CNC[C@H](O)c1cccc(O)c1 = 95.7
COc1cc2c(cc1OC)-c1c/c(=N\c3c(C)cc(C)cc3C)n(C)c(=O)n1CC2 = 94.3
CC(C)c1ccc(CC(=O)N2CCC[C@@H](c3cccc(OC(C)(C)C(=O)O)c3)C2)cc1 = 104
CC[C@H](C)C[C@H](C)CCCCCCCCC(=O)N[C@H]1C[C@@H](O)[C@@H](NCCN)NC(=O)[C@@H]2[C@@H](O)CCN2C(=O)[C@H]([C@H](O)CCN)NC(=O)[C@H]([C@H](O)[C@@H](O)c2ccc(O)cc2)NC(=O)[C@@H]2C[C@@H](O)CN2C(=O)[C@H]([C@@H](C)O)NC1=O = 104

// N[C@H](C(=O)O)c1ccc(O)cc1 : cell viability value = 99.2

// CCn1c(-c2nonc2N)nc2cncc(C(=O)N3CC[C@H](N)C3)c21 : cell viability value = 107

// Cc1cc(O)c(C(C)C)cc1Cl : cell viability value = 101

// NCCCCN=C(N)N : cell viability value = 93.2

// COC(=O)c1c(C)[nH]c(C)c1C(=O)c1ccccc1Cc1ccccc1 : cell viability value = 89.8

Source of measurements: the supplement of paper PMC13380429
